tgt: T1, Kumin (Mycobacterium tuberculosis, UniProt P9WKD9 1-259)
T1 sequence: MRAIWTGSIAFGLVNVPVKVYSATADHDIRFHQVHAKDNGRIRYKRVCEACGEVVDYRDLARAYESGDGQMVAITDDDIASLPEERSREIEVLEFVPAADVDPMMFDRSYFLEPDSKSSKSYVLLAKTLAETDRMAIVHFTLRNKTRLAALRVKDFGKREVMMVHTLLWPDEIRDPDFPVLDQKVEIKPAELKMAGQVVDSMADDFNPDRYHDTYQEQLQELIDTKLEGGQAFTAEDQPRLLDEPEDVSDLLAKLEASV
testProtocol: EMSA; 5 mM Mg2+; EMSA: 50 mM Tris-HCl pH 8.0, 50 mM NaCl, 1 mM DTT, 5 mM MgCl2, 4% glycerol, 0.025 mg/ml BSA, 10 nM DNA, 30 C 20 min; FP: 10 mM Tris-HCl pH 8, 10 mM NaCl, 10% glycerol, 1 mM TCEP, 50 nM DNA, 30 C; ternary EMSA: 20 mM Tris-HCl pH 8.0, 5 mM MgCl2, 5% glycerol, 37 C; bridging: 20 mM Tris-HCl pH 7.5, 50 mM KCl, 5 mM EDTA, 1 mM DTT, 5% glycerol, 40 ug/ml BSA, room temperature
assayConditions: protein: recombinant; tags: His (Ni-NTA purified; pMCSG7); chain copies: 2; label: 5' 6-FAM on strand 1; blunt
propertyMeasured: pKd
Worth noting: pKd values are minus log10 of concentrations stated in mol/L.

Please indicate pKd recorded for 40 bp dsDNA (dsDNA) DNA 1: CAGGGTAAGTGTGGAGGTGTAGGGAAGGGAATGTTGTCTG DNA 2: CAGACAACATTCCCTTCCCTACACCTCCACACTTACCCTG 6.34

// data source = paper PMC9638933
